- Tested on: MDA-MB-435
- experiment: NCI tumour cell line growth inhibition, 48 h
observed property: TGI

compound: COc1nc2ccc(CNc3ccc(C(=O)NC(CCC(=O)O)C(=O)O)cc3)cc2nc1OC (stereo not given)
target of assay: MDA-MB-435
observed property: TGI
observed measurement: > 100 µM
//
compound: CCCCC(=O)c1c(O)ccc2c(C)cc(=O)oc12
target of assay: MDA-MB-435
observed property: TGI
observed measurement: > 100 µM
//
compound: COc1ccc(C2CC(c3ccc(OC)cc3O)=NN2c2ccc(S(N)(=O)=O)cc2)cc1 (stereo not given)
target of assay: MDA-MB-435
observed property: TGI
observed measurement: > 100 µM
//
compound: N#Cc1sc2c(c1OC(=O)c1ccc(Cl)cc1Cl)c(=O)n(-c1ccccc1)c(=S)n2-c1ccccc1
target of assay: MDA-MB-435
observed property: TGI
observed measurement: 46.2 µM
//
compound: O=C(c1ccccc1)N(CCCCNC(=O)C(F)(F)F)CCCNC(=O)C(F)(F)F
target of assay: MDA-MB-435
observed property: TGI
observed measurement: > 100 µM
//
compound: CC(C)=NOC(=O)OC[C@H]1O[C@@H](n2cnc3c(N)ncnc32)C(O)C1O (stereo not given in full)
target of assay: MDA-MB-435
observed property: TGI
observed measurement: > 100 µM
//
compound: C#CCOC(=O)/C=C/C(=O)Oc1ccc2c(C)cc(=O)oc2c1
target of assay: MDA-MB-435
observed property: TGI
observed measurement: > 100 µM
//
compound: CN[C@@H](Cc1cccc2ccccc12)C(=O)N[C@@H](CC(C)C)B(O)O
target of assay: MDA-MB-435
observed property: TGI
observed measurement: 0.0147 µM
//
compound: COC(=O)CCC(=O)c1ccc2c(c1)CC1(C2)Cc2ccc(C(=O)CCC(=O)OC)cc2C1
target of assay: MDA-MB-435
observed property: TGI
observed measurement: > 100 µM
//
compound: O=C(c1ccc2ccccc2c1)c1c(C(F)(F)F)n([O-])c2cc(C(F)(F)F)ccc2[n+]1=O
target of assay: MDA-MB-435
observed property: TGI
observed measurement: 3.31 µM
//
compound: CCN1C(=O)N(CC)C2C1NN=c1s/c(=C\c3ccc(C(F)(F)F)cc3)c(=O)n12 (stereo not given)
target of assay: MDA-MB-435
observed property: TGI
observed measurement: 0.437 µM
//
compound: CC1(C)CCc2c(c(N=Nc3ccccc3F)c3ccccc3c2O)O1
target of assay: MDA-MB-435
observed property: TGI
observed measurement: > 100 µM
//
compound: CC1OC(CC(=O)O)Cc2c1c(O)c1c(O)cc(-c3cc(=O)c4c(=O)c5c(c(=O)c=4c3=O)CC(CC(=O)O)OC5C)c(O)c1c2O (stereo not given)
target of assay: MDA-MB-435
observed property: TGI
observed measurement: 36.7 µM
//
compound: OCCN(CCO)c1nc(N2CCCCC2)c2nc(N(CCO)CCO)nc(N3CCCCC3)c2n1
target of assay: MDA-MB-435
observed property: TGI
observed measurement: > 100 µM
//
compound: COc1ccc(N/N=C/C2=CC(C)(C)C(C#N)(C#N)C(O)=C2C#N)cc1
target of assay: MDA-MB-435
observed property: TGI
observed measurement: > 100 µM
//
compound: Cc1ccc2nc(CN(CCO)CCO)cc(=O)n2c1
target of assay: MDA-MB-435
observed property: TGI
observed measurement: > 100 µM
//
compound: CC(C)(C)OC(=O)NCCC1CNc2ccccc21 (stereo not given)
target of assay: MDA-MB-435
observed property: TGI
observed measurement: > 100 µM
//
compound: CCc1cccc(NC(=O)Nc2ccc(Oc3ccc4nc(NC(=O)OC)[nH]c4c3)cc2)c1
target of assay: MDA-MB-435
observed property: TGI
observed measurement: 0.643 µM
//
compound: CCCCc1n(Cc2ccc3ccccc3n2)cc[n+]1Cc1ccc2ccccc2n1
target of assay: MDA-MB-435
observed property: TGI
observed measurement: 7.78 µM
//
compound: CCn1c(SCC(=O)Nc2cc(C(F)(F)F)ccc2Cl)nc2ccccc2c1=O
target of assay: MDA-MB-435
observed property: TGI
observed measurement: > 100 µM
